System: KRAS patient-derived spheroids with HUVEC/MSC, viability;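 further: spheroids exposed to agents for seven days before readout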
measurement protocol: Anticancer human tumor 941728-121-R-J1-PDC patient-derived lung adenocarcinoma cell line growth inhibition [KRAS2]
assay context: second compound 10 µM; first compound 0.1 µM; active compounds read low
Description: Multicellular complex tumor spheroid response to RAS pathway inhibitors in combination with a targeted agents in patient-derived cell lines with oncogenic KRAS variants from multiple cancer types A high-throughput screen of multi-cell type tumor spheroids was designed to identify active combinations of targeted small molecules and KRAS pathway inhibitors. […] Compounds. […] If the clinical Cmax for an agent had not been determined, the highest concentration tested was 10 microM. […]
Met if viability, T/C is below 20%. Not met if not; exact matches included in Not met.

**Query** Given COc1cc(Nc2ncc3c(n2)-c2ccc(Cl)cc2C(c2c(F)cccc2OC)=NC3)ccc1C(=O)O + CNCc1ccccc1-c1csc(C(C)Nc2nc(C)nc3cc(OC)c(OC)cc23)c1 , is recorded viability, T/C strictly lower than 20%?
**Result** Met

**Query** Hello, is viability, T/C of the following compound strictly smaller than 20%? Cn1nccc1Nc1nccc(-c2cc3c(s2)C(C)(C)N(CCN2CCOCC2)C3=O)n1 + CNCc1ccccc1-c1csc(C(C)Nc2nc(C)nc3cc(OC)c(OC)cc23)c1
**Result** Met

**Query** In the record for Cn1ncnc1[C@H]1c2n[nH]c(=O)c3cc(F)cc(c23)N[C@@H]1c1ccc(F)cc1 + CNCc1ccccc1-c1csc(C(C)Nc2nc(C)nc3cc(OC)c(OC)cc23)c1 , is viability, T/C less than 20%?
**Result** Met

**Query** Does this compound meet the criterion viability, T/C < 20%? CC1COCCN1c1cc(-c2ccnn2C)c2ccnc(-c3ccn[nH]3)c2n1 (stereo not drawn) + COc1cc2nc(C)nc(NC(C)c3cc(N)cc(C(F)(F)F)c3)c2cc1OC1CCOC1
**Result** Not met

**Query** For this compound, is viability, T/C lower than 20%? CC(=O)OC12COC1CC(O)C1(C)C(=O)C(O)C3=C(C)C(OC(=O)C(O)C(NC(=O)OC(C)(C)C)c4ccccc4)CC(O)(C(OC(=O)c4ccccc4)C21)C3(C)C (stereo not drawn) + COc1cc2nc(C)nc(NC(C)c3cc(N)cc(C(F)(F)F)c3)c2cc1OC1CCOC1
**Result** Not met

**Query** Please state whether viability, T/C is below 20% for CCN1CCN(Cc2ccc(Nc3ncc(F)c(-c4cc(F)c5nc(C)n(C(C)C)c5c4)n3)nc2)CC1 + CC1OCC2(CCN(c3cnc(Sc4ccnc(N)c4Cl)c(N)n3)CC2)C1N
**Result** Met

**Query** For this compound, is viability, T/C lower than 20%? CC1OCC2(CCN(c3cnc(Sc4ccnc(N)c4Cl)c(N)n3)CC2)C1N (stereo not drawn) + COc1cc2nc(C)nc(NC(C)c3cc(N)cc(C(F)(F)F)c3)c2cc1OC1CCOC1
**Result** Not met

**Query** Consider the compound CN(C)C/C=C/C(=O)Nc1cc2c(Nc3ccc(F)c(Cl)c3)ncnc2cc1O[C@H]1CCOC1 + C=CC(=O)N1CCN(c2nc(=O)n(-c3c(C)ccnc3C(C)C)c3nc(-c4c(O)cccc4F)c(F)cc23)C(C)C1 . Is its viability, T/C strictly less than 20%?
**Result** Met

**Query** # strict comparison: is reported viability, T/C < 20%? input = CN(C)C/C=C/C(=O)Nc1cc2c(Nc3ccc(F)c(Cl)c3)ncnc2cc1O[C@H]1CCOC1 + CNCc1ccccc1-c1csc(C(C)Nc2nc(C)nc3cc(OC)c(OC)cc23)c1
**Result** Met

**Query** Report whether reported viability, T/C is lower than 20% (strictly) for COC(=O)c1ccc2c(C(=Nc3ccc(N(C)C(=O)CN4CCN(C)CC4)cc3)c3ccccc3)c(O)[nH]c2c1 + CNCc1ccccc1-c1csc(C(C)Nc2nc(C)nc3cc(OC)c(OC)cc23)c1
**Result** Met

**Query** Does this compound meet the criterion viability, T/C < 20%? CN(C)C/C=C/C(=O)Nc1cc2c(Nc3ccc(F)c(Cl)c3)ncnc2cc1O[C@H]1CCOC1 + CC1OCC2(CCN(c3cnc(Sc4ccnc(N)c4Cl)c(N)n3)CC2)C1N
**Result** Not met

**Query** Is it true that viability, T/C reported for Cn1ncnc1[C@H]1c2n[nH]c(=O)c3cc(F)cc(c23)N[C@@H]1c1ccc(F)cc1 + C=CC(=O)N1CCN(c2nc(=O)n(-c3c(C)ccnc3C(C)C)c3nc(-c4c(O)cccc4F)c(F)cc23)C(C)C1 is less than 20%?
**Result** Met
